Target: HLA-B*18:01
Test: IEDB peptide-MHC binding, purified MHC/direct/fluorescence; filed as Kd, often an IC50 or EC50 that approximates it; bounds were set here for any values at or beyond the usual limits of such assays
Conditions: source organism: Cryptosporidium parvum
reported-property: Kd

## Input So what's the measured Kd for this one? RKWGLDFCY
## Output ≥ 20 µM

---

Target: HLA-B*07:02
Experiment: IEDB peptide-MHC binding, purified MHC/competitive/radioactivity; filed as Kd, often an IC50 or EC50 that approximates it; bounds were set here for any values at or beyond the usual limits of such assays
Conditions: source organism: Dengue virus 4 Philippines/H241/1956
reported-property: Kd (µM)
Report as a plain number; the unit µM is understood.

## Input So what's the measured Kd for this one? RPLSEKEENM
## Output 2.03

---

Exercise: for every item that follows, state its recorded pKd.
Biological target: HLA-B*27:03
Assay: IEDB peptide-MHC binding, purified MHC/competitive/fluorescence; filed as Kd, often an IC50 or EC50 that approximates it; bounds were set here for any values at or beyond the usual limits of such assays
Settings: source organism: Giardia lamblia ATCC 50803
pKd: −log10 of the molar value.

## Input So what's the measured pKd for this one? ISKANWMTY
## Output ≤ 4.70

## Input What about AILAGEHKC ?
## Output ≤ 4.70

## Input What about IANTTDHFF ?
## Output ≤ 4.70

---

Target: HLA-B*45:06
Test: IEDB peptide-MHC binding, purified MHC/competitive/fluorescence; filed as Kd, often an IC50 or EC50 that approximates it; bounds were set here for any values at or beyond the usual limits of such assays
Conditions: source organism: Giardia lamblia ATCC 50803
reported-property: Kd (µM)
Report as a plain number; the unit µM is understood.

## Input So what's the measured Kd for this one? YPFHIFYPV
## Output 4.7

---

Target: HLA-B*15:17
Experiment: IEDB peptide-MHC binding, purified MHC/direct/fluorescence; filed as Kd, often an IC50 or EC50 that approximates it; bounds were set here for any values at or beyond the usual limits of such assays
Details: source organism: Vibrio cholerae
reported-property: Kd

## Input So what's the measured Kd for this one? IVKQGRDAL
## Output ≥ 20 µM

---

Target: HLA-A*01:01
Assay: IEDB peptide-MHC binding, purified MHC/competitive/fluorescence; bounds were set here for any values at or beyond the usual limits of such assays
Details: source organism: Homo sapiens
pIC50: −log10 of the molar value.
reported-property: pIC50

## Input So what's the measured pIC50 for this one? ILNRETLLDFV
## Output ≤ 4.70

---

Target: HLA-B*15:17
Assay: IEDB peptide-MHC binding, purified MHC/competitive/fluorescence; filed as Kd, often an IC50 or EC50 that approximates it; bounds were set here for any values at or beyond the usual limits of such assays
Conditions: source organism: Cryptosporidium parvum Iowa II
reported-property: Kd

## Input So what's the measured Kd for this one? RKWGLDFCY
## Output ≥ 20 µM

---

Target: HLA-B*45:01
Assay: IEDB peptide-MHC binding, purified MHC/competitive/radioactivity; filed as Kd, often an IC50 or EC50 that approximates it; bounds were set here for any values at or beyond the usual limits of such assays
Details: source organism: Mammarenavirus guanaritoense
pKd: −log10 of the molar value.
reported-property: pKd

## Input Lab request: please report pKd under test system HLA-B*45:01 for SEDGLDGFDW
## Output ≤ 4.25

Cited source: the Immune Epitope Database (IEDB)
